System: HCT 116 (colon)
PROTOCOL DETAILS: Cytotoxicity on human cells, automated nuclei counting: HCT 116
Format: cell-based
CONDITIONS: HCT 116 cells, exposed 24 h to 48 h, 0.1 to 25 μM
For each record, check the reported IC50: if it is below 2 µM write t, else write f.

1. O=C(Nc1cnccn1)Nc1cccc2c1C1CC3(CCN1C2=O)SCCS3 (stereo not shown) [Compound 17]	t
2. O=C(Nc1ccccn1)Nc1cccc2c1C1CC3(CCN1C2=O)OCCO3 (stereo not shown) [Compound 28]	t

Q. State whether 2 µM exceeds IC50 recorded for O=C(Nc1ccccn1)Nc1cccc2c1C1C[C@@H](O)CCN1C2=O (stereo partly shown) [Compound 104] .
A. t

Q. Quick check: does COc1cc(NC(=O)Nc2cccc3c2C2CC(OC)CCN2C3=O)nc2ccccc12 (stereo not shown) [Compound 55] have IC50 under 2 µM?
A. f

Q. Please indicate whether the reported IC50 of COC1CCN2C(=O)c3cccc(NC(=O)Nc4cccc(C)n4)c3C2C1 (stereo not shown) [Compound 56] is strictly below 2 µM.
A. f
